Property: logP; scope: individual molecules

Please review the following examples before continuing.
>>> value_observed("CCCCCCN(CCCCCC)C(=O)COC(=O)c1ccccc1")
6.53
>>> value_observed("CC(C)NC(=O)COC(=O)c1ccccc1")
1.73
>>> value_observed("NC(=O)COC(=O)c1ccccc1")
0.69
>>> value_observed("CC(=O)N(C)C(=O)COC(=O)c1ccccc1")
1.58
>>> value_observed("O=C(OCC(=O)N1CCC(O)CC1)c1ccccc1")
0.63

Okay, now this molecule:
Prompt: For the molecule shown here, "CC(=O)N(C)CCOC(=O)c1ccccc1" , give the reported logP.
Response: 1.24

###

Note that class boundaries on logP are bucket A = under 1, bucket B = from 1 up to 2, bucket C = 2 and over

Use these answered entries as a reference point.
>>> qualitative_label("CC(=O)NC(=O)COC(=O)c1ccccc1")
"bucket B"
>>> qualitative_label("NC(=O)C1CCCN1C(=O)COC(=O)c1ccccc1 (stereo unspecified)")
"bucket A"
>>> qualitative_label("CCCNC(=O)COC(=O)c1ccccc1")
"bucket B"
>>> qualitative_label("O=C(COC(=O)c1ccccc1)NC(CO)(CO)CO")
"bucket A"
>>> qualitative_label("CCCCCCNC(=O)COC(=O)c1ccccc1")
"bucket C"

Prompt: Categorize the following entry: "CCCCNC(=O)COC(=O)c1ccccc1"
Response: bucket C

Prompt: Category lookup for the molecule "CCNC(=O)COC(=O)c1ccccc1"
Response: bucket B

Prompt: Band for CCC1CCCCN1C(=O)COC(=O)c1ccccc1 (stereo unspecified) ?
Response: bucket C

Prompt: Hey, which category is "O=C(OCC(=O)N1CCOCC1)c1ccccc1" in, do you know?
Response: bucket A

Prompt: Please indicate the class for "CCCCCCN(C)C(=O)COC(=O)c1ccccc1" based on its logP.
Response: bucket C

###

Settings: pH 2.0
Overview of reported logD across a group of compounds:
// return just the number, without any unit appended

>>> value_observed("CN(CC(=O)O)C(=O)COC(=O)c1ccccc1")
0.67

Turning to the following compound.
Prompt: What logD value was documented for this compound, O=C(OCC(=O)N1CCC1C(=O)O)c1ccccc1 (configuration not stated) ?
Response: 0.79

###

parameter.measured: logP
Answer as a number with no unit attached.

Some solved entries appear below for comparison.
>>> value_observed("C=CCN(CC=C)C(=O)COC(=O)c1ccccc1")
2.34
>>> value_observed("CCN(CC)C(=O)C(C)OC(=O)c1ccccc1 (configuration not stated)")
2.3
>>> value_observed("CC(C)(C)NC(=O)COC(=O)c1ccccc1")
2.26
>>> value_observed("CC(NC(=O)COC(=O)c1ccccc1)C(N)=O (configuration not stated)")
0.42
>>> value_observed("CNC(=O)COC(=O)c1ccccc1")
0.99
>>> value_observed("COCCN(CCOC)C(=O)COC(=O)c1ccccc1")
1.28

Now let's try a different one.
Prompt: // returns reported logP for input CC(O)CN(CC(C)O)C(=O)COC(=O)c1ccccc1 (configuration not stated)
Response: 0.66
